- subject-of-test: T1, human IGF-IR (Homo sapiens, UniProt P08069)
- T1 construct: The extracellular domain of human IGF-IR (aa 1-932) was cloned into a mammalian expression vector; made in house
- test-name: Surface plasmon resonance (BIAcore) binding kinetics and affinity on immobilized IGF-IR
- condition-description: Table 7, FG loop optimized 338A06 clones
Known kd of a selection of molecules

molecule	kd
385A08 (protein) VSDVPRDLEVVAATPTSLLISWSARLKVARYYRITYGETGGNSPVQEFTVPKNVYTATISGLKPGVDYTITVYAVTRFRDYQPISINYRTHHHHHH	1.9 1/s × 10^−4
386A03 (protein) VSDVPRDLEVVAATPTSLLISWSARLKVARYYRITYGETGGNSPVQEFTVPKNVYTATISGLKPGVDYTITVYAVTNLRDYGPISINYRTHHHHHH	4.6 1/s × 10^−4
387B01 (protein) VSDVPRDLEVVAATPTSLLISWSARLKVARYYRITYGETGGNSPVQEFTVPKNVYTATISGLKPGVDYTITVYAVTSLRDYGPISINYRTHHHHHH	4.4 1/s × 10^−4
386F10 (protein) VSDVPRDLEVVAATPTSLLISWSARLKVARYYRITYGETGGNSPVQEFTVPKNVYTATISGLKPGVDYTITVYAVTLLRDYGPISINYRTHHHHHH	2.3 1/s × 10^−4
